This section presents compounds with their documented inhibition values.
Molecular target: Protein-tyrosine kinase 2-beta (Homo sapiens) (UniProt Q14289);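 note: reported as mean percent inhibition of PYK2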
Sequence (Q14289 whole entry, looked up): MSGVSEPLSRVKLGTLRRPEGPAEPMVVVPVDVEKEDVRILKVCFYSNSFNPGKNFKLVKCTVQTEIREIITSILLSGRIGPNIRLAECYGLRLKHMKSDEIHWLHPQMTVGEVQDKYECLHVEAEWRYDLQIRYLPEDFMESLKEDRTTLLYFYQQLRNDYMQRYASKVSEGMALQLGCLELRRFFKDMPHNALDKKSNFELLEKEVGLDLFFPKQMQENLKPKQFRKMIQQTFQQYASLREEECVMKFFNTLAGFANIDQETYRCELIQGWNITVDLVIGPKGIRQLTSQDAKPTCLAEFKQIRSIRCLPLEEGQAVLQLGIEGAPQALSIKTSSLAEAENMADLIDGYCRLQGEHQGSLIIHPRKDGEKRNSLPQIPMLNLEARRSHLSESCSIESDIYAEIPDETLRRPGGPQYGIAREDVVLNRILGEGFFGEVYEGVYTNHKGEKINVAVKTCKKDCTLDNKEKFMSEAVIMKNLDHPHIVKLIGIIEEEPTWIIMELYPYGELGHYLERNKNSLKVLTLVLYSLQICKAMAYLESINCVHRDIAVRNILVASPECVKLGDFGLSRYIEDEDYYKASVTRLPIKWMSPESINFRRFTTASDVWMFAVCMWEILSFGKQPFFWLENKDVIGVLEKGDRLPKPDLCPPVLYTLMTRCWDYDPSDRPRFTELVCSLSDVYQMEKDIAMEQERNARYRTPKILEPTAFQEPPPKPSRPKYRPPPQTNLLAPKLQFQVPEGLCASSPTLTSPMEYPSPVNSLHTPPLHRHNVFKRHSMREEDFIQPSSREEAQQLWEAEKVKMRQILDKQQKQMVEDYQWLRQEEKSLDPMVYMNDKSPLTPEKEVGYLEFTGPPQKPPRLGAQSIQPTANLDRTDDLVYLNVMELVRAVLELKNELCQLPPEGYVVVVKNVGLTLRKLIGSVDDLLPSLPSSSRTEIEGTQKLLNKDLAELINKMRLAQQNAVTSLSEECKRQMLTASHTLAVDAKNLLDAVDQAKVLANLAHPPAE
Details: at 0.1 µM
value-type: inhibition (%)

>  <compound>
Cc1ccc(C(=O)NC2CC2)cc1-c1ccc2[nH]ncc2c1

>  <readout-number>
-4.62

$$$$
>  <compound>
CN(C)CCCn1c(-c2nonc2N)nc2cnccc21

>  <readout-number>
9.44

$$$$
>  <compound>
CCCN1CCCC(c2ccc(Nc3nc(Nc4cc(F)ccc4C(N)=O)c4cc[nH]c4n3)c(OC)c2)C1 (stereo not drawn)

>  <readout-number>
96

$$$$
>  <compound>
C[C@@H](Oc1cc(-n2cnc3ccc(OC[C@@H](O)CO)cc32)sc1C(N)=O)c1ccccc1Cl

>  <readout-number>
-2.91

$$$$
>  <compound>
C[C@@H](Oc1cc(-n2cnc3ccc(OCC4CCN(C)CC4)cc32)sc1C(N)=O)c1ccccc1C(F)(F)F

>  <readout-number>
-2.32

$$$$
>  <compound>
Cc1ccc2c(c1)/C(=N/Nc1ccc(S(N)(=O)=O)cc1)C(=O)N2

>  <readout-number>
1.76

$$$$
>  <compound>
Nc1nccc(C#Cc2cncnc2Nc2ccc(OCc3cccc(F)c3)c(Cl)c2)n1

>  <readout-number>
8.24

$$$$
>  <compound>
COc1cc(Nc2nccc(-c3cnn4ncccc34)n2)cc(OC)c1

>  <readout-number>
38.9

$$$$

###

Target: Dual specificity protein kinase CLK3 (Homo sapiens)
Conditions: at 0.1 µM
Description: GSK_PKIS: CLK3 mean inhibition at 0.1 uM [Nanosyn]
This section presents compounds with their documented inhibition values.

>  <smiles-record>
ON=C1CCc2cc(-c3nc(C4CCNCC4)[nH]c3-c3ccncc3)ccc21

>  <target-of-assay>
Dual specificity protein kinase CLK3 (Homo sapiens)

>  <inhibition [%]>
-0.6

$$$$
>  <smiles-record>
Oc1cccc(-c2nc(-c3ccccc3)[nH]c2-c2ccncc2)c1

>  <target-of-assay>
Dual specificity protein kinase CLK3 (Homo sapiens)

>  <inhibition [%]>
1.66

$$$$
>  <smiles-record>
Cc1ccc2c(-c3ccnc(Nc4cccc(C(F)(F)F)c4)n3)c(-c3ccccc3)nn2n1

>  <target-of-assay>
Dual specificity protein kinase CLK3 (Homo sapiens)

>  <inhibition [%]>
0.65

$$$$

###

Target: Casein kinase I isoform gamma-2 (Homo sapiens);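 note: values are mean inhibition figures reported as part of the GSK PKIS dataset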
Conditions: at 0.1 µM

>  <smiles-record>
Cc1ccc2c(-c3ccnc(Nc4ccc5c(c4)OCCO5)n3)c(-c3ccc(C(F)(F)F)cc3)nn2n1

>  <reading-unit>
%

>  <inhibition>
0.1

$$$$
>  <smiles-record>
C[C@@H](Oc1cc(-n2cnc3ccc(OC[C@@H](O)CO)cc32)sc1C(N)=O)c1ccccc1Cl

>  <reading-unit>
%

>  <inhibition>
-1.3

$$$$
>  <smiles-record>
CS(=O)(=O)CCNCc1nc(-c2ccc3ncnc(Nc4ccc(OCc5cccc(C(F)(F)F)c5)cc4)c3c2)cs1

>  <reading-unit>
%

>  <inhibition>
0.96

$$$$
>  <smiles-record>
CN(C)CCCn1c(-c2nonc2N)nc2cnccc21

>  <reading-unit>
%

>  <inhibition>
3.15

$$$$
>  <smiles-record>
COc1cc2ncnc(Nc3ccc4c(cnn4Cc4ccccc4)c3)c2cc1OC

>  <reading-unit>
%

>  <inhibition>
1.06

$$$$

###

Target: Testis-specific serine/threonine-protein kinase 2 (Homo sapiens) (UniProt Q96PF2);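 note: each value is the mean percent inhibition of TSSK2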
Sequence (Q96PF2 whole entry): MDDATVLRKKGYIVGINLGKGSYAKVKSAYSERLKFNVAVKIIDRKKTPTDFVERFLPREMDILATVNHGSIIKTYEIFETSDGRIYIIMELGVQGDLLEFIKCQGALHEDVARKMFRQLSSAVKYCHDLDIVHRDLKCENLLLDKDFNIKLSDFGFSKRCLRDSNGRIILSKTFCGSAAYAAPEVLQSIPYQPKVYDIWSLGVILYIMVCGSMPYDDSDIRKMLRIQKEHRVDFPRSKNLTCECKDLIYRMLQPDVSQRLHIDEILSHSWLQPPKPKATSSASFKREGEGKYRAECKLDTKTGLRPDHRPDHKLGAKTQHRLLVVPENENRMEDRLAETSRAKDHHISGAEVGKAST
Conditions: at 1 µM

>  <smiles-record>
FC(F)(F)c1ccc(-c2nn3ncccc3c2-c2ccnc(Nc3ccc4c(c3)OCCO4)n2)cc1

>  <inhibition, %>
5.84

$$$$
>  <smiles-record>
CCS(=O)(=O)c1ccc(OC)c(Nc2nccc(N(C)c3ccc4c(C)n[nH]c4c3)n2)c1

>  <inhibition, %>
1.88

$$$$
>  <smiles-record>
CN(C)c1cc2c(Nc3ccc4c(cnn4Cc4ccccc4)c3)ncnc2cn1

>  <inhibition, %>
-1.33

$$$$
>  <smiles-record>
CS(=O)(=O)CCNCc1nc(-c2ccc3ncnc(Nc4ccc(OCc5cccc(C(F)(F)F)c5)cc4)c3c2)cs1

>  <inhibition, %>
0.58

$$$$
>  <smiles-record>
Cc1ccc2c(c1)/C(=N/Nc1ccc(S(N)(=O)=O)cc1)C(=O)N2

>  <inhibition, %>
-1.16

$$$$
>  <smiles-record>
O=C(Nc1ccc(Oc2ccc3[nH]c(NC(=O)c4ccco4)nc3c2)cc1)Nc1cc(C(F)(F)F)ccc1F

>  <inhibition, %>
-0.72

$$$$
>  <smiles-record>
Oc1cccc(-c2nc(-c3ccccc3)[nH]c2-c2ccncc2)c1

>  <inhibition, %>
2.57

$$$$
>  <smiles-record>
c1ccc(Cc2nc3ccc(Nc4ncnc5ccccc45)cc3[nH]2)cc1

>  <inhibition, %>
4.11

$$$$
>  <smiles-record>
CC(C)c1ccc(Nc2nccc(-c3cnn4ncccc34)n2)cc1

>  <inhibition, %>
0.57

$$$$
>  <smiles-record>
C[C@@H](Oc1cc(-n2cnc3ccc(OCC4CCN(C)CC4)cc32)sc1C(N)=O)c1ccccc1C(F)(F)F

>  <inhibition, %>
-0.35

$$$$
>  <smiles-record>
COC(=O)c1cncc(/C=C/c2c(C)cc(O)cc2C)c1

>  <inhibition, %>
0.8

$$$$
>  <smiles-record>
NC(=O)c1cccc(Nc2nccc(Nc3cccc(F)c3)n2)c1

>  <inhibition, %>
-0.96

$$$$
>  <smiles-record>
NS(=O)(=O)c1ccc(NC=C2C(=O)Nc3ccc4ncsc4c32)cc1

>  <inhibition, %>
3.73

$$$$
>  <smiles-record>
COc1cccc(-n2nc(C)c3c(N/N=C(\C)c4ccncc4)ncnc32)c1

>  <inhibition, %>
-0.42

$$$$
>  <smiles-record>
Nc1nccc(-c2c(-c3ccc(F)cc3)nn3cc(C(F)(F)F)ccc23)n1

>  <inhibition, %>
-0.24

$$$$
>  <smiles-record>
Nc1nccc(-c2c(-c3ccc(F)cc3)ncn2CCCN2CCOCC2)n1

>  <inhibition, %>
2.83

$$$$
>  <smiles-record>
OCc1ccc(-c2nc(-c3ccccn3)c(-c3ccc4c(c3)OCO4)[nH]2)cc1

>  <inhibition, %>
-1.56

$$$$
>  <smiles-record>
COc1cccc(-n2ncc3c(N/N=C/c4ccc(S(C)(=O)=O)cc4)ncnc32)c1

>  <inhibition, %>
0.31

$$$$
>  <smiles-record>
N#Cc1c(NC(=O)c2ccccc2F)sc2c1CCCC2

>  <inhibition, %>
0.04

$$$$
>  <smiles-record>
Cc1nc(-c2ccccc2)n2nc(NCCCN3CCOCC3)ncc12

>  <inhibition, %>
0.77

$$$$
>  <smiles-record>
CC(C)c1ccc2c(c1)NC(=O)/C2=N/Nc1ccc(S(N)(=O)=O)cc1

>  <inhibition, %>
0.46

$$$$
>  <smiles-record>
CN(C)C(=O)O[C@H]1CN[C@H](C#Cc2cc3ncnc(Nc4ccc(OCc5cccc(F)c5)c(Cl)c4)c3s2)C1

>  <inhibition, %>
-1.25

$$$$

###

Tested on: Tyrosine-protein kinase ABL1 (Homo sapiens), P00519 [T315I]
Conditions: at 0.1 µM

>  <compound>
Cc1ccc(Nc2ccnc(Nc3cccc(C(N)=O)c3)n2)cc1O

>  <reading-unit>
%

>  <inhibition>
7.09

$$$$
>  <compound>
CCS(=O)(=O)c1ccc(OC)c(Nc2ncc(-c3cccc(OC)c3)o2)c1

>  <reading-unit>
%

>  <inhibition>
6.23

$$$$
>  <compound>
NS(=O)(=O)c1cccc(Nc2cc(-c3ccc(F)cc3)n[nH]2)c1

>  <reading-unit>
%

>  <inhibition>
1.49

$$$$
>  <compound>
Nc1nccc(-c2c(-c3ccc(F)cc3)nn3cc(C(F)(F)F)ccc23)n1

>  <reading-unit>
%

>  <inhibition>
0.42

$$$$
>  <compound>
CCCN1CCCC(c2ccc(Nc3nc(Nc4cc(F)ccc4C(N)=O)c4cc[nH]c4n3)c(OC)c2)C1 (centres undefined)

>  <reading-unit>
%

>  <inhibition>
4.52

$$$$
>  <compound>
Cc1ccc2c(-c3ccnc(Nc4cccc(C(F)(F)F)c4)n3)c(-c3ccccc3)nn2n1

>  <reading-unit>
%

>  <inhibition>
6.16

$$$$
>  <compound>
COc1cc(Nc2nccc(-c3cnn4ncccc34)n2)cc(OC)c1

>  <reading-unit>
%

>  <inhibition>
5.15

$$$$
>  <compound>
Cc1nc(-c2ccccc2)n2nc(NCCCN3CCOCC3)ncc12

>  <reading-unit>
%

>  <inhibition>
2.3

$$$$
>  <compound>
Cc1ccc2c(c1)/C(=N/Nc1ccc(S(N)(=O)=O)cc1)C(=O)N2

>  <reading-unit>
%

>  <inhibition>
1.43

$$$$
>  <compound>
COC(=O)c1ccc2c(c1)C(=Cc1cc(Br)c(O)c(Br)c1)C(=O)N2

>  <reading-unit>
%

>  <inhibition>
1.82

$$$$
>  <compound>
COc1cccc(-n2ncc3c(N/N=C/c4ccc(C)cc4)ncnc32)c1

>  <reading-unit>
%

>  <inhibition>
5.28

$$$$
>  <compound>
COc1ccc(-c2nn3ncccc3c2-c2ccnc(Nc3cccc(C(F)(F)F)c3)n2)cc1

>  <reading-unit>
%

>  <inhibition>
2.45

$$$$
>  <compound>
COc1cc2ncnc(Nc3ccc(C)c(O)c3)c2cc1OC

>  <reading-unit>
%

>  <inhibition>
16.5

$$$$
>  <compound>
N#Cc1c(NC(=O)c2ccccc2F)sc2c1CCCC2

>  <reading-unit>
%

>  <inhibition>
-0.91

$$$$
>  <compound>
CCn1c(-c2nonc2N)nc2c(C#CC(C)(C)O)nc(OCCNC)cc21

>  <reading-unit>
%

>  <inhibition>
1.77

$$$$
>  <compound>
CS(=O)(=O)Nc1cccc(-c2ccc3c(NC(=O)C4CC4)n[nH]c3c2)c1

>  <reading-unit>
%

>  <inhibition>
3.71

$$$$
>  <compound>
CN1CCN(C(=O)c2ccc(NC(=O)Nc3ccc(N(C)c4ccnc(Nc5ccc(CS(C)(=O)=O)cc5)n4)cc3)cc2)CC1

>  <reading-unit>
%

>  <inhibition>
17.6

$$$$
>  <compound>
NC(=O)c1cccc(Nc2nccc(Nc3cccc(F)c3)n2)c1

>  <reading-unit>
%

>  <inhibition>
1.3

$$$$
>  <compound>
Nc1nccc(C#Cc2cncnc2Nc2ccc(OCc3cccc(F)c3)c(Cl)c2)n1

>  <reading-unit>
%

>  <inhibition>
2.46

$$$$
